Protocol: Primary qHTS for small molecule stabilizers of the endoplasmic reticulum resident proteome: Secreted ER Calcium Modulated Protein (SERCaMP) assay (AID 1508630); further: on the % scale 0 is the no-effect control and ±100 the full control effect
Applied conditions: SH-SY5Y GLuc-SERCaMP (Gaussia luciferase released on ER calcium loss) secretion, thapsigargin, luminescence; series mostly up to 38.4 µM
Results filed as inconclusive are left out. Activity calls are given as the source filed them. The call rests on the fitted dose curve; in most records, active means well fitted inhibition curve with a large enough effect; inconclusive means small, poorly fitted or top-dose-only effect; inactive means no such curve, though single readings can be large or run the other way.
Measured quantity: activity change, negative = inhibition

> print(dat)
                                    compound                       measured.quantity            observed.measurement
 1                CC(C)n1nnc2cc(C(=O)O)ccc21  activity change, negative = inhibition                        inactive
 2   CC(C)(C)n1nc(-c2ccc(Cl)cc2)c2c(N)ncnc21  activity change, negative = inhibition                        inactive
 3  Nc1c(S(=O)(=O)O)cc(Nc2cccc3ccccc23)c2c1C(=O)c1ccccc1C2=O  activity change, negative = inhibition                        inactive
 4                       COCCCCCCCCCCCC(=O)O  activity change, negative = inhibition  -27.3% [at 3.88 µM] (inactive)
 5          C[C@@H]1Nc2ccc(Cl)cc2S(=O)(=O)N1  activity change, negative = inhibition                        inactive
 6                 CC[C@](N)(CCC(=O)O)C(=O)O  activity change, negative = inhibition                        inactive
 7  CCCCCCCCCCCCCCCCCCOC[C@H](COP(=O)([O-])OCC[N+](C)(C)C)OC(C)=O  activity change, negative = inhibition   33.9% [at 3.88 µM] (inactive)
 8  C=C[C@@]1(C)CC(=O)[C@@]2(O)[C@@]3(C)[C@@H](O)CCC(C)(C)[C@@H]3[C@H](O)[C@H](OC(C)=O)[C@@]2(C)O1  activity change, negative = inhibition                        inactive
 9                      O=Nc1ccc(O)c2ncccc12  activity change, negative = inhibition                        inactive
10  COC(=O)[C@H]1C2CC3c4[nH]c5ccccc5c4CCN3CC2CC[C@@H]1O (stereo partly drawn)  activity change, negative = inhibition                        inactive
11  CC12CCC3c4ccc(O)cc4CCC3C1CCC2O (stereo not drawn)  activity change, negative = inhibition                        inactive
12  COc1cc(-c2ccc(N=Nc3ccc4c(S(=O)(=O)O)cc(S(=O)(=O)O)c(N)c4c3O)c(OC)c2)ccc1N=Nc1ccc2c(S(=O)(=O)O)cc(S(=O)(=O)O)c(N)c2c1O  activity change, negative = inhibition  -28.6% [at 7.35 µM] (inactive)
13  CCCCCCCCCCCCC/C=C/[C@@H](O)[C@H](CO)N(C)C  activity change, negative = inhibition  -20.6% [at 3.88 µM] (inactive)
14          O=C(OCCN1CCCCC1)c1c[nH]c2ccccc12  activity change, negative = inhibition                        inactive
15  CCCCCCOC(=O)C1(O)CC2OC1(C)n1c3ccccc3c3c4c(c5c6ccccc6n2c5c31)C(=O)NC4 (stereo not drawn)  activity change, negative = inhibition    -23% [at 3.88 µM] (inactive)
16        N#C/C(=C\c1cc(Cl)cc(Cl)c1)c1cccnc1  activity change, negative = inhibition                        inactive
17  O=c1ncccn1[C@@H]1O[C@H](CO)C(O)[C@@H]1O (stereo partly drawn)  activity change, negative = inhibition                        inactive
18     CCCCCCCC/C=C\C/C=C\C/C=C\CCCC(=O)NCCO  activity change, negative = inhibition  -21.6% [at 3.88 µM] (inactive)
19  N#Cc1ccccc1OCC(O)CNCCNC(=O)Nc1ccccc1 (stereo not drawn)  activity change, negative = inhibition                        inactive
20               NCCNS(=O)(=O)c1cccc2cnccc12  activity change, negative = inhibition                        inactive
21         N[C@H](C(=O)O)[C@H]1C[C@H]1C(=O)O  activity change, negative = inhibition                        inactive
22                 COc1oc(=O)c2cc(N)ccc2c1Cl  activity change, negative = inhibition                        inactive
23          Cn1cnc2nc(NCCO)nc(NCc3ccccc3)c21  activity change, negative = inhibition                        inactive

These measurements were taken from PubChem BioAssay (NCATS).
